B1: tRNA (parent)
chain: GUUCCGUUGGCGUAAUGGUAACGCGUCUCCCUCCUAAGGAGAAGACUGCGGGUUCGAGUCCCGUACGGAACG

variants of: B1; test: yeast fitness, log relative to wild type (ln ratio); higher = fitter; tRNA-Arg(CCU), competitive growth, 37 C, 1 M NaCl
Measurement Label: yeast fitness (ln)
No unit in the answer, please; the number alone is enough.

Return value of yeast fitness (ln) for input G1A G6U A43C C46U A69G A70U , no commentary.
-0.272

Return value of yeast fitness (ln) for input G6U C27U C66U A70U , no commentary.
-0.261

Return value of yeast fitness (ln) for input U2C G6A C27U C66U A69G A70G , no commentary.
-0.0504

Return value of yeast fitness (ln) for input G1A U2G G6A C46U A69G A70G , no commentary.
-0.251

Return value of yeast fitness (ln) for input G1A G6U A43C C66A C71U , no commentary.
-0.0965

Return value of yeast fitness (ln) for input G6U C27U A43C C46U A69G A70U , no commentary.
-0.245

Return value of yeast fitness (ln) for input G6A A43C C46U A70G C71U , no commentary.
-0.207

Return value of yeast fitness (ln) for input G1A U2G C27U A43C C46U A69G A70G C71U , no commentary.
-0.221

Return value of yeast fitness (ln) for input U2C G6U A43C A69G A70G , no commentary.
-0.143

Return value of yeast fitness (ln) for input U2G G6A C27U A69G C71U , no commentary.
-0.268

Return value of yeast fitness (ln) for input U2C G6U A43C C66U A69G A70G C71U , no commentary.
-0.352

Return value of yeast fitness (ln) for input U2C G6A C27U C46U A69G A70U C71U , no commentary.
-0.295

Return value of yeast fitness (ln) for input G1A U2C C27U A43C C46U C66U C71U , no commentary.
-0.241

Return value of yeast fitness (ln) for input U2C C27U C46U C66A , no commentary.
-0.143

Return value of yeast fitness (ln) for input U2C C27U C66U A69G A70U C71U , no commentary.
-0.453

Return value of yeast fitness (ln) for input U2C G6U C27U A43C C46U A70G , no commentary.
-0.204

Return value of yeast fitness (ln) for input U2G G6U C46U A69G A70U , no commentary.
-0.402

Return value of yeast fitness (ln) for input U2C G6U C27U A43C C66U A69G A70G , no commentary.
-0.426

Return value of yeast fitness (ln) for input U2G G6A C46U A69G A70G C71U , no commentary.
-0.154

Return value of yeast fitness (ln) for input U2C G6A C46U C66U A70U C71U , no commentary.
-0.183

Return value of yeast fitness (ln) for input G1A G6A C27U A43C C46U C66U A69G A70G , no commentary.
-0.309

Return value of yeast fitness (ln) for input U2G C27U A43C C66A A70G C71U , no commentary.
-0.257

Return value of yeast fitness (ln) for input G6A C66A C71U , no commentary.
-0.0747

Return value of yeast fitness (ln) for input U2G A43C C46U A70G , no commentary.
-0.0614

Return value of yeast fitness (ln) for input G6A A43C C66A A69G A70G C71U , no commentary.
-0.261

Return value of yeast fitness (ln) for input G1A U2C C27U A43C C66U A70G C71U , no commentary.
-0.197

Return value of yeast fitness (ln) for input U2G G6A C27U A43C C46U C66U A69G C71U , no commentary.
-0.377

Return value of yeast fitness (ln) for input G1A U2C G6U C27U C46U A70G C71U , no commentary.
-0.203

Return value of yeast fitness (ln) for input G1A G6A C27U C66A A69G A70G C71U , no commentary.
-0.392

Return value of yeast fitness (ln) for input U2G G6A C27U A43C C46U C66U A69G A70U C71U , no commentary.
-0.433

Return value of yeast fitness (ln) for input G1A U2G C27U A43C C66A A69G A70G , no commentary.
-0.27

Return value of yeast fitness (ln) for input U2C G6A C27U A43C C46U A69G A70U , no commentary.
-0.122

Return value of yeast fitness (ln) for input G1A U2C C46U A70U , no commentary.
-0.0782

Return value of yeast fitness (ln) for input G1A U2C G6U A43C C46U C66A A70G C71U , no commentary.
-0.0283

Return value of yeast fitness (ln) for input G6U C46U C66U A69G A70G , no commentary.
-0.275

Return value of yeast fitness (ln) for input U2C C27U A43C A69G C71U , no commentary.
-0.144

Return value of yeast fitness (ln) for input U2C C46U A70G C71U , no commentary.
-0.00238

Return value of yeast fitness (ln) for input U2C C27U A43C C46U C66U A70G , no commentary.
-0.0949

Return value of yeast fitness (ln) for input G1A C27U A43C C46U A69G , no commentary.
-0.116

Return value of yeast fitness (ln) for input G1A C27U C66A A69G A70U C71U , no commentary.
-0.303

Return value of yeast fitness (ln) for input U2G C27U C71U , no commentary.
-0.0721

Return value of yeast fitness (ln) for input A43C C46U C66U A69G A70U C71U , no commentary.
-0.356

Return value of yeast fitness (ln) for input U2G G6U C27U A43C , no commentary.
-0.107

Return value of yeast fitness (ln) for input G1A G6U C46U C66A A69G C71U , no commentary.
-0.041

Return value of yeast fitness (ln) for input U2C C66U A70G C71U , no commentary.
-0.0234

Return value of yeast fitness (ln) for input G6A C27U A43C A70G C71U , no commentary.
-0.304

Return value of yeast fitness (ln) for input G1A G6U C46U C66A , no commentary.
-0.0835

Return value of yeast fitness (ln) for input U2G G6U C27U C66U A69G A70G , no commentary.
-0.375

Return value of yeast fitness (ln) for input G1A U2C G6U A43C C46U , no commentary.
0.0223

Return value of yeast fitness (ln) for input U2G C66U C71U , no commentary.
-0.181

Return value of yeast fitness (ln) for input G1A C27U A43C C46U C71U , no commentary.
-0.0315

Return value of yeast fitness (ln) for input U2C G6U C27U A43C C46U C66U , no commentary.
-0.0875

Return value of yeast fitness (ln) for input U2C C66A , no commentary.
0.0749

Return value of yeast fitness (ln) for input U2G G6U C46U C66A A70U C71U , no commentary.
-0.0156

Return value of yeast fitness (ln) for input G1A U2C C27U C46U A69G A70G C71U , no commentary.
-0.0376

Return value of yeast fitness (ln) for input G1A C27U A43C A69G , no commentary.
-0.138

Return value of yeast fitness (ln) for input G6A C46U , no commentary.
-0.0181

Return value of yeast fitness (ln) for input G1A U2G G6A C46U C66A A70G C71U , no commentary.
-0.185

Return value of yeast fitness (ln) for input G1A U2G G6U C27U A43C C66A A70U , no commentary.
-0.212

Return value of yeast fitness (ln) for input U2C G6U C27U A69G A70U C71U , no commentary.
-0.354

Return value of yeast fitness (ln) for input A43C C46U A69G A70G , no commentary.
-0.0166

Return value of yeast fitness (ln) for input U2G G6A C27U A43C C46U C66A A69G C71U , no commentary.
-0.283

Return value of yeast fitness (ln) for input G6U C27U C46U C66A A70U , no commentary.
-0.084

Return value of yeast fitness (ln) for input G1A G6U C46U C66U A69G C71U , no commentary.
-0.814

Return value of yeast fitness (ln) for input G1A U2C C27U A70G C71U , no commentary.
-0.0348

Return value of yeast fitness (ln) for input G1A C46U C66U A69G C71U , no commentary.
-0.763

Return value of yeast fitness (ln) for input G1A G6U A43C C46U C66A A69G A70U , no commentary.
-0.474

Return value of yeast fitness (ln) for input U2C A43C C66A C71U , no commentary.
-0.169

Return value of yeast fitness (ln) for input A43C C66A C71U , no commentary.
-0.117

Return value of yeast fitness (ln) for input U2G G6A C46U A70G , no commentary.
-0.0796

Return value of yeast fitness (ln) for input G1A U2G G6A C27U A43C C66U A70U C71U , no commentary.
-0.536

Return value of yeast fitness (ln) for input G1A G6A C66U , no commentary.
-0.113

Return value of yeast fitness (ln) for input C27U C46U A70G , no commentary.
-0.029

Return value of yeast fitness (ln) for input U2C G6U C46U , no commentary.
-0.0289

Return value of yeast fitness (ln) for input G1A G6A C27U A43C C46U C66A A69G A70G C71U , no commentary.
-0.302

Return value of yeast fitness (ln) for input U2C G6A C46U C66U A70G , no commentary.
-0.00418

Return value of yeast fitness (ln) for input G1A G6A A43C C46U A69G A70G , no commentary.
-0.251

Return value of yeast fitness (ln) for input A43C C46U C66U A69G A70G , no commentary.
-0.117

Return value of yeast fitness (ln) for input G1A U2C C71U , no commentary.
-0.00448

Return value of yeast fitness (ln) for input G6U C27U C66U A69G C71U , no commentary.
-0.377

Return value of yeast fitness (ln) for input G1A U2G G6U A69G A70U C71U , no commentary.
-0.255

Return value of yeast fitness (ln) for input G1A U2C G6U C27U A43C A70U , no commentary.
-0.14

Return value of yeast fitness (ln) for input G1A U2G G6U C46U A69G A70G , no commentary.
-0.247

Return value of yeast fitness (ln) for input G1A U2G G6U A43C C71U , no commentary.
-0.307

Return value of yeast fitness (ln) for input G1A U2C C27U A43C C46U C66U A70G , no commentary.
-0.0953

Return value of yeast fitness (ln) for input G6A C27U A43C C46U C71U , no commentary.
-0.176

Return value of yeast fitness (ln) for input G6U C46U C66U A70U , no commentary.
-0.297

Return value of yeast fitness (ln) for input G1A C27U C66A A70U C71U , no commentary.
-0.243

Return value of yeast fitness (ln) for input C27U C66A A69G A70U , no commentary.
-0.15

Return value of yeast fitness (ln) for input G1A U2C C27U A43C , no commentary.
-0.0395

Return value of yeast fitness (ln) for input U2C C46U A70U C71U , no commentary.
-0.0871
